target: T1, c-Met-Fc chimera protein (UniProt P08581 25-932, limits assumed); assay: SPR presumed (Biacore as in 9-1; method not given), c-Met-Fc on chip
T1 construct: Captured on the SPR chip by an anti-IgG antibody; not shown: Fc part
T1 sequence (P08581 25-932 limits assumed, change not shown): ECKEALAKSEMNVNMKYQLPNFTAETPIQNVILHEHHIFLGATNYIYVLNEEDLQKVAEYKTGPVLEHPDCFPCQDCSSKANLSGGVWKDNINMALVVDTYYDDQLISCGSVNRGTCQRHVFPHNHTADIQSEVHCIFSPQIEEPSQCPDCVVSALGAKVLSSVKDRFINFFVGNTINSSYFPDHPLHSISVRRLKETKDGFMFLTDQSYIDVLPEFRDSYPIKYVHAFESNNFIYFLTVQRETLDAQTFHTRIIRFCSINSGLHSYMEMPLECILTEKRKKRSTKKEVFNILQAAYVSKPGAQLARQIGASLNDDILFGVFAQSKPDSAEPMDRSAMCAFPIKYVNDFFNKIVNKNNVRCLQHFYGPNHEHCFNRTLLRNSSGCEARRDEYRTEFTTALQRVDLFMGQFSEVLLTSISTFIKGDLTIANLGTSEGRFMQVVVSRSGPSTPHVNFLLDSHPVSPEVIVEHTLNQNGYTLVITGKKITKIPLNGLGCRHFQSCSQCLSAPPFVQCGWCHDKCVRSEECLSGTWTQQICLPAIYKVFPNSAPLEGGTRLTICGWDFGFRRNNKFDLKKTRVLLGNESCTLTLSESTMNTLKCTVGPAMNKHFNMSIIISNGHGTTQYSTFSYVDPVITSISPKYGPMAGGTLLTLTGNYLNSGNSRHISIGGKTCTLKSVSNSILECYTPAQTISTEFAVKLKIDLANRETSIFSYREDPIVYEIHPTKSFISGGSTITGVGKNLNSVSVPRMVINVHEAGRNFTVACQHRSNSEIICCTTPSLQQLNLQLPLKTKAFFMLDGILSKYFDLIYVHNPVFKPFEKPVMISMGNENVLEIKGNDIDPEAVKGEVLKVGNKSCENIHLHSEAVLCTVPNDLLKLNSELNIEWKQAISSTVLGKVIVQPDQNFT
Bridges are numbered along the chain shown (N, C = ends). Where no end group is shown, it is not given here. [ ]: non-standard residue; d: D form. NMeR = CN[C@@H](CCCNC(=N)N)C(=O)O; NMeF = CN[C@@H](Cc1ccccc1)C(=O)O; NMeT = CN[C@H](C(=O)O)[C@@H](C)O; NMeD = CN[C@@H](CC(=O)O)C(=O)O
Metric: koff (s⁻¹)

{CH2CO}-YRQFNRR[NMeT]HEVWNLDCG (thioether N-16) [D4-3-N8]: 0.006

(A) {CH2CO}-YRQFNRRTHEVWNL[NMeD]CG (thioether N-16 (inferred)) [N15, N-methylated D4-3 peptide]
(B) {CH2CO}-YRQFN[NMeR]RTHEVWNLDCG (thioether N-16) [D4-3-N6]
(C) {CH2CO}-YRQ[NMeF]NRRTHEVWNLDCG (thioether N-16 (inferred)) [N4, N-methylated D4-3 peptide]
Input line: Given 3 binders, produce a descending ranking by koff. // ordering of labels required in reply
Output line: A, C, B
(A: 0.046 s⁻¹, C: 0.0096 s⁻¹, B: 0.0041 s⁻¹)

Each recorded value in this set is attributed to patent US20160237119A1.
